Value source: PubChem BioAssay (NCI)

- Tested on: SNB-75 CNS
- assay.procedure: NCI-60 one-dose screen, 48 h (100 = growth as untreated, 0 = no growth, -100 = all killed)
- measurement.context: 10 µM unless noted
- Protocol: Growth inhibition of the SNB-75 human tumor cell line is measured as a screen for anti-cancer activity. Cells are grown in 96 well plates and exposed to the test compound for 48 hours. Compounds are tested at a single concentration, which is 10^-5 M for most compounds. The reported endpoint is percent growth (GI% or GIPRCNT), where numbers from 0 - 100% represent growth inhibition, and numbers from -100% - 0 represent cell death. For example, a value of 40 represents 60% growth inhibition. […]
Compounds without any hit were thinned out: in the full panel of roughly 83,000, 20% have a hit.
assay.metric: growth (%)
The figure you give is taken to be in %; do not add the unit.

Some compounds with known growth results, for comparison:
INSERT INTO results (smiles_string, value_measured) VALUES
  ('Cn1cc(-c2cc(N)n3nc(-c4cn(C)c5ccc(Br)cc45)cc3n2)c2cc(Br)ccc21', 82.2),
  ('COc1cc(-c2nc3ccc(-c4nnc(SCC(=O)Nc5ccc(C(C)=O)cc5)o4)cc3[nH]2)cc(OC)c1OC', 96.6),
  ('N#Cc1ccc(/C=N/NC(=O)c2[nH]c3ccc(Br)cc3c2-c2ccccc2)s1', 49.7);

Could you now look at the following compound, please?
Prompt: Item "CCOC(=O)c1csc(NC(=O)CSc2nc3sc4c(c3c(=O)n2-c2ccc(Cl)cc2)CCCC4)n1" has what recorded growth?
Completion: 86.2
